Target: PI 3-kinase delta (Homo sapiens, UniProt O00329)
Sequence (O00329 whole entry): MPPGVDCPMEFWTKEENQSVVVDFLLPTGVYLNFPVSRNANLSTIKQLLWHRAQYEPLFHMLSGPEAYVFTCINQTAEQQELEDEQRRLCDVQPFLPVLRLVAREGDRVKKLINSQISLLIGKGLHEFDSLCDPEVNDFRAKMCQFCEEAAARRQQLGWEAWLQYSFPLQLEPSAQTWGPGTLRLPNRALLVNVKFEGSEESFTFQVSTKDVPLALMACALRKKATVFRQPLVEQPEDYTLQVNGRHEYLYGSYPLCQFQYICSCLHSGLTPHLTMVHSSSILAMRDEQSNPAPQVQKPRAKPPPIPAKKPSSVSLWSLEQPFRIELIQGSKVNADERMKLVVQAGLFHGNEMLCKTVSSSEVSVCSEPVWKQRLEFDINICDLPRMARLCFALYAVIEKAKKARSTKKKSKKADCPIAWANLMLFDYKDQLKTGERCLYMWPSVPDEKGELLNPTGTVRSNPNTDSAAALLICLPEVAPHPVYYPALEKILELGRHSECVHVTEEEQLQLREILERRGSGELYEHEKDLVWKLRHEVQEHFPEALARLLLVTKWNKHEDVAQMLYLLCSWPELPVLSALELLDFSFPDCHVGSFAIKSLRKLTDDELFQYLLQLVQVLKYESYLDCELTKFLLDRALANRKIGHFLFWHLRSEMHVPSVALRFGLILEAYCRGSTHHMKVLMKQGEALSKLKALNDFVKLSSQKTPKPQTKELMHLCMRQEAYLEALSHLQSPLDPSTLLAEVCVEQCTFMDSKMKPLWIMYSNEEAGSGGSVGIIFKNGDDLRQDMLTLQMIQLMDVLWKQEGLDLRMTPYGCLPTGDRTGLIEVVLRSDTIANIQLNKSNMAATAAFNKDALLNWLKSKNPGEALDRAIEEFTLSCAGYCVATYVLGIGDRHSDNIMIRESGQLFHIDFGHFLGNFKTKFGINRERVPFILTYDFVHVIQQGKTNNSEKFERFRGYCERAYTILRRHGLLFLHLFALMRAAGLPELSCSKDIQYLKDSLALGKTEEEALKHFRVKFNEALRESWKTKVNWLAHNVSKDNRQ
Sequence (Q63787 whole entry partner): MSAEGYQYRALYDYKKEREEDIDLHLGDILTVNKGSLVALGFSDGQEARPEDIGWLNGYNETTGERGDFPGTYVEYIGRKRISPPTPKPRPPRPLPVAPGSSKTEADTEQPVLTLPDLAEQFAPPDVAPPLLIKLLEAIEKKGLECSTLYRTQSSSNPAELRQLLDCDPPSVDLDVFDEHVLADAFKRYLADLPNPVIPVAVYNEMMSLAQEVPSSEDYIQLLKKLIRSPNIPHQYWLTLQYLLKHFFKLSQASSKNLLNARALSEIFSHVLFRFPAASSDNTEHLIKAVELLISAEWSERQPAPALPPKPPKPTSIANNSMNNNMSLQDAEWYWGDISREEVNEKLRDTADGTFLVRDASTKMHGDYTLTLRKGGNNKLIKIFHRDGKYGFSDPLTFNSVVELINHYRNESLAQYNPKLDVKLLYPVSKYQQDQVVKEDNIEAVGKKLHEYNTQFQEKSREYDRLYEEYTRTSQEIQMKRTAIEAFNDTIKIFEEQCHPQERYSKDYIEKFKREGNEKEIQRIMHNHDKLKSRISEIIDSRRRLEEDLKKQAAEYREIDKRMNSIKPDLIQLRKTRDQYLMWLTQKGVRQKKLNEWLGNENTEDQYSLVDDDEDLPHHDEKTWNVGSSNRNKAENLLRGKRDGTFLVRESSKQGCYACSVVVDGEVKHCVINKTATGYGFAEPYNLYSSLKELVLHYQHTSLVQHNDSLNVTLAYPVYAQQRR
Experiment: Cellular assay J1, p-Akt (S473) in Rat-1 cells, Surefire format
Type: cell-based
Conditions: non-asterisked data: version J1 (Surefire format), Rat-1 cells; read-out: Assay J PI3Kδ IC50
attribute.measured: IC50 (µM)

>>> df
                                   molecule  attribute_measured  test_value
0  Cc1cnn(-c2nc(-c3cc(S(=O)(=O)N[C@H]4CC[C@H](O)CC4)ccc3C)cnc2N)c1 [Example 111]                IC50        0.46
1  Cc1ncc(-c2nc(-c3cc(S(=O)(=O)NC[C@H]4C[C@H](O)C4)ccc3C)cnc2N)s1 [Example 20b]                IC50        0.61
2  Cc1ccc(S(=O)(=O)NCCC(C)(C)O)cc1-c1cnc(N)c(-n2ccnc2)n1 [Example 61]                IC50        8.18
3  Cc1ccc(S(=O)(=O)N[C@H]2C[C@@H](O)C2)cc1-c1cnc(N)c(-n2cncn2)n1 [Example 71b]                IC50        5.86

All values here come from patent US10004732B2.
